- Tested on: CYP6G1
- run description: Drug metabolism in Drosophila melanogaster D.mel-2 cells deficient in CYP6G1 assessed as drug recovery measured 24 hr post dose by HPLC method
- Format: ADME
- reported conditions: D.mel-2 cells deficient in CYP6G1, read-out: Drug recovery
readout kind: remaining at 24 h

// O=[N+]([O-])NC1=NCCN1Cc1ccc(Cl)nc1 [IMIDACLOPRID] : remaining at 24 h value = 115%

// CC(c1ccc(C(F)(F)F)nc1)S(C)(=O)=NC#N (configuration not stated) [SULFOXAFLOR] : remaining at 24 h value = 105%

====

Entries and their half-life at 1000 ppm
- run description: Stability assessed as half life for photolysis in UV chamber at 1000 ppm by HPLC method
- Type: physicochemical
Give the value; after it, write the unit.

compound: CC(c1ccc(C(F)(F)F)nc1)S(C)(=O)=NC#N (configuration not stated)
reported measurement: 88 h

Let us examine a further case.
O=[N+]([O-])NC1=NCCN1Cc1ccc(Cl)nc1 yielded half-life at 1000 ppm of 7 h
